Species: Rattus norvegicus
Assay: Open TG-GATES - Regimen: Daily Repeat
Format: toxicity, organism-based, Sprague-Dawley
Parameters: regimen Daily Repeat, gender Male, age 6 weeks
Settings: in vivo, po, 300 mg/kg, […], tissue Plasma, route gavage, dose level Middle, time 7 day
# A/G annotations
Format: numeric value only, no unit, no commentary.

Example compounds with recorded A/G:
compound=O=C(O)c1ccccc1Nc1ccccc1 measured=0.9
compound=CC(=O)[C@@]1(O)CC[C@H]2[C@@H]3C=C(Cl)C4=CC(=O)CC[C@]4(C)[C@H]3CC[C@@]21C measured=1.1
compound="CCCCNC(=O)NS(=O)(=O)c1ccc(C)cc1 [TOLBUTAMIDE]" measured=0.8

# ---- query compound ----
A/G lookup needed for CC(S)C(=O)NCC(=O)O (centres undefined) , thanks.
1.1

----------
Reported values of APTT for individual entries
Species on record: Rattus norvegicus
Experiment: Open TG-GATES - Regimen: Daily Repeat
Type: toxicity, organism-based, Sprague-Dawley
Design: regimen Daily Repeat, gender Male, age 6 weeks
Conditions: in vivo, po, 300 mg/kg, 72 h, tissue Blood, route gavage, dose level Middle, time 3 day
# number only, unit s dropped from output

compound=O=C(O)c1ccccc1Nc1ccccc1 property_measured=APTT measured=15.8
compound="CCCCNC(=O)NS(=O)(=O)c1ccc(C)cc1 [TOLBUTAMIDE]" property_measured=APTT measured=17
compound="CC(S)C(=O)NCC(=O)O (centres undefined)" property_measured=APTT measured=22.4

Next compound, please.
// lookup APTT for CC(=O)[C@@]1(O)CC[C@H]2[C@@H]3C=C(Cl)C4=CC(=O)CC[C@]4(C)[C@H]3CC[C@@]21C
27.6

----------
Species on record: Rattus norvegicus
Experiment: Open TG-GATES - Regimen: Daily Repeat
Type: toxicity, organism-based, Sprague-Dawley
Parameters: regimen Daily Repeat, gender Male, age 6 weeks
Settings: in vivo, po, 0 mg/kg, […], tissue Blood, route gavage, dose level Control, time 7 day
property_measured: Neu (%)
Unit % implied. Number only.

These solved cases illustrate the format of a correct answer.
molecule=CCO measured=10.6
molecule=COc1ccc([C@@H]2Sc3ccccc3N(CCN(C)C)C(=O)[C@@H]2OC(C)=O)cc1 measured=18.4
molecule=CC(=O)[C@@]1(O)CC[C@H]2[C@@H]3C=C(Cl)C4=CC(=O)CC[C@]4(C)[C@H]3CC[C@@]21C measured=15.2
molecule="CN(CCOc1ccc(CC2SC(=O)NC2=O)cc1)c1ccccn1.O=C(O)/C=C\\C(=O)O (stereo not given) [ROSIGLITAZONE MALEATE]" measured=12.8

# next molecule below
// returns reported Neu for input CCCCNC(=O)NS(=O)(=O)c1ccc(C)cc1 [TOLBUTAMIDE]
15.6

----------
Species: Rattus norvegicus
Experiment: Open TG-GATES - Regimen: Daily Repeat
Type: toxicity, organism-based, Sprague-Dawley
Design: regimen Daily Repeat, gender Male, age 6 weeks
Conditions: in vivo, po, 0 mg/kg, […], tissue Blood, route gavage, dose level Control, time 28 day
property_measured: Hb (g/dL)
Please respond with the number in g/dL and leave the unit unwritten.

Use the examples below as a reference point.
molecule=CC(=O)[C@@]1(O)CC[C@H]2[C@@H]3C=C(Cl)C4=CC(=O)CC[C@]4(C)[C@H]3CC[C@@]21C property_measured=Hb measured=15.2
molecule=CCN(CC)C(=S)SSC(=S)N(CC)CC property_measured=Hb measured=15.2
molecule="CCCCNC(=O)NS(=O)(=O)c1ccc(C)cc1 [TOLBUTAMIDE]" property_measured=Hb measured=15.8
molecule="CN(CCOc1ccc(CC2SC(=O)NC2=O)cc1)c1ccccn1.O=C(O)/C=C\\C(=O)O (configuration not stated) [ROSIGLITAZONE MALEATE]" property_measured=Hb measured=14.6
molecule=O=c1ccc2ccccc2o1 property_measured=Hb measured=15.1

Which measured Hb value corresponds to O=C(O)c1ccccc1Nc1ccccc1 ?
14.9

Another molecule to look at: CCO
15.4

Next molecule: CN(C/C=C/C#CC(C)(C)C)Cc1cccc2ccccc12
15.5

What do you have for CCCCC1C(=O)N(c2ccccc2)N(c2ccccc2)C1=O ?
15.7

Also CC(S)C(=O)NCC(=O)O (configuration not stated) ?
15.3

What do we get for Nc1ccc(Cc2ccc(N)cc2)cc1 ?
14.9

Now this one: NS(=O)(=O)c1cc(C(=O)O)c(NCc2ccco2)cc1Cl [FUROSEMIDE]
15.1
